Please respond with reported degraded at 2 h for every item in the list.
assay: Hydrolysis of the compound in simulated intestinal fluid at 10 mg after 120 mins by spectrophotometry; type: ADME; settings: read-out: Drug degradation
Your reply should be a number followed by the unit it is expressed in.

**Query** Name the reported degraded at 2 h value associated with the compound COc1ccc(C2C(C)C(=O)CC(c3ccc(F)cc3)N2C(=O)CN2CCN(C)CC2)cc1 (stereo not given)
**Result** 2.51%

**Query** Entry under review: COc1ccc(C2C(C)C(=O)CC(c3ccc(Cl)cc3)N2C(=O)CN2CCN(C)CC2)cc1 (stereo not given) . Reported degraded at 2 h?
**Result** 18.8%

**Query** Find the recorded degraded at 2 h belonging to CC1C(=O)CC(c2ccc(Cl)cc2)N(C(=O)CCl)C1c1ccc(N(C)C)cc1 (stereo not given) and report it.
**Result** 76.8%

**Query** Please look up its degraded at 2 h: CC1C(=O)CC(c2ccc(F)cc2)N(C(=O)CCl)C1c1ccc(Cl)cc1 (stereo not given)
**Result** 1.17%

**Query** Item under review: CC1C(=O)CC(c2ccc(F)cc2)N(C(=O)CN2CCN(C)CC2)C1c1ccc(Cl)cc1 (stereo not given) . Reported degraded at 2 h?
**Result** 4.49%

**Query** Please give the measured degraded at 2 h for this compound: CC1C(=O)CC(c2ccc(Cl)cc2)N(C(=O)CN2CCN(C)CC2)C1c1ccc(N(C)C)cc1 (stereo not given)
**Result** 77.6%

**Query** If you can, please state the reported degraded at 2 h value of CC1C(=O)CC(c2ccc(F)cc2)N(C(=O)CCl)C1c1ccc(O)cc1 (stereo not given) .
**Result** 43.2%

**Query** # degraded at 2 h lookup, item CC1C(=O)CC(c2ccc(Cl)cc2)N(C(=O)CCl)C1c1ccc(O)cc1 (stereo not given)
**Result** 42.7%

**Query** Consider the compound shown here: COc1ccc(C2C(C)C(=O)CC(c3ccc(F)cc3)N2C(=O)CCl)cc1 (stereo not given) What is its recorded degraded at 2 h?
**Result** 2.01%

**Query** Dear colleague, I am looking for the recorded degraded at 2 h of the following compound: COc1ccc(C2C(C)C(=O)CC(c3ccc(Cl)cc3)N2C(=O)CCl)cc1 (stereo not given)
**Result** 2.68%

* * *

Could you please report measured inhibition in vivo at 60 mg/kg for the items listed next?
test system: Mus musculus; experiment: Analgesic activity in albino mouse assessed as inhibition of acetic acid-induced writhing at 60 mg/kg, po administered 1 hr prior challenge relative to control; type: functional
Express the result in % but write the number alone.

**Query** State the recorded inhibition in vivo at 60 mg/kg for this entry: CC1C(=O)CC(c2ccc(Cl)cc2)N(C(=O)CN2CCN(C)CC2)C1c1ccc(N(C)C)cc1 (stereo not given)
**Result** 28.1

**Query** I have this compound here, CC1C(=O)CC(c2ccc(F)cc2)N(C(=O)CCl)C1c1ccc(O)cc1 (stereo not given) , and I need its recorded inhibition in vivo at 60 mg/kg.
**Result** 51.2

**Query** Which inhibition in vivo at 60 mg/kg is reported for this compound? COc1ccc(C2C(C)C(=O)CC(c3ccc(Cl)cc3)N2C(=O)CCl)cc1 (stereo not given)
**Result** 44.1

**Query** Which value of inhibition in vivo at 60 mg/kg has been reported for COc1ccc(C2C(C)C(=O)CC(c3ccc(F)cc3)N2C(=O)CN2CCN(C)CC2)cc1 (stereo not given) in the records?
**Result** 55.2

**Query** Which inhibition in vivo at 60 mg/kg reading was recorded for the compound COc1ccc(C2C(C)C(=O)CC(c3ccc(F)cc3)N2C(=O)CCl)cc1 (stereo not given) ?
**Result** 51.2
